# study system: Prostaglandin D2 receptor 2 (Homo sapiens, UniProt Q9Y5Y4)
# Sequence (Q9Y5Y4 whole entry): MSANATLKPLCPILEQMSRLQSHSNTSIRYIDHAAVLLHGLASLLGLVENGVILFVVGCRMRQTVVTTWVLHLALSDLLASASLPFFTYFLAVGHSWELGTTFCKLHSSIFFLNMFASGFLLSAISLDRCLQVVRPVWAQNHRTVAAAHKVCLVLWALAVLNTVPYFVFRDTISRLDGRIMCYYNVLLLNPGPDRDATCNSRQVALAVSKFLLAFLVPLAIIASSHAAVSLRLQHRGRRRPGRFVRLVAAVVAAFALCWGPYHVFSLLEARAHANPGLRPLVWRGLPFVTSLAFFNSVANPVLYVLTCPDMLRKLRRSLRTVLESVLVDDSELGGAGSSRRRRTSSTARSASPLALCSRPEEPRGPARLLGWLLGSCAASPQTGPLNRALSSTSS
# test summary: Effective concentration DP2 mediated expression of the adhesion molecule CD11b in eosinophils
# Type: functional
property: EC50 (nM)

(A) CCCCC[C@H](O)/C=C/[C@H]1C(=O)C[C@H](O)[C@@H]1CC=CCCCC(=O)O [[3H]PGD2]
(B) CCCCC[C@](C)(O)/C=C/[C@H]1C(=O)C[C@H](O)[C@@H]1C/C=C/CCCC(=O)O
(C) CCCCC[C@@](C)(O)/C=C/[C@H]1C(=O)C[C@H](O)[C@@H]1C/C=C/CCCC(=O)O
Ask | Put the items in order so that reported EC50 rises from first to last. Provide the ranking by listing each label in its place in the requested order.
Reply | C, A, B

* * *

# study system: Prostaglandin D2 receptor 2 (Homo sapiens)
# test summary: Effective concentration for DP2 mediated stimulation of actin polymerization in eosinophils
# Assay type: functional
property: EC50 (nM)

(a) CCCCC[C@](C)(O)/C=C/[C@H]1C(=O)C[C@H](O)[C@@H]1C/C=C/CCCC(=O)O
(b) CCCCC[C@@](C)(O)/C=C/[C@H]1C(=O)C[C@H](O)[C@@H]1C/C=C/CCCC(=O)O
(c) CCCCC[C@H](O)/C=C/[C@H]1C(=O)C[C@H](O)[C@@H]1CC=CCCCC(=O)O [[3H]PGD2]
Ask | Put the entries in order of EC50, starting with the largest number. Respond with an ordered listing of the labels, as requested.
Reply | a, c, b

Origin of the recorded values: ChEMBL document CHEMBL1144368
